biological target: CYP46A1 (Homo sapiens, UniProt Q9Y6A2); assay: Spectral binding assay of antifungal azoles; set-up: Recombinant full-length human CYPs 46A1 and 27A1 and bovine CYP11A1 were expressed and purified; made in house; details: 0.3 μM purified P450; read-out: estimated Kd
Sequence (Q9Y6A2 whole entry): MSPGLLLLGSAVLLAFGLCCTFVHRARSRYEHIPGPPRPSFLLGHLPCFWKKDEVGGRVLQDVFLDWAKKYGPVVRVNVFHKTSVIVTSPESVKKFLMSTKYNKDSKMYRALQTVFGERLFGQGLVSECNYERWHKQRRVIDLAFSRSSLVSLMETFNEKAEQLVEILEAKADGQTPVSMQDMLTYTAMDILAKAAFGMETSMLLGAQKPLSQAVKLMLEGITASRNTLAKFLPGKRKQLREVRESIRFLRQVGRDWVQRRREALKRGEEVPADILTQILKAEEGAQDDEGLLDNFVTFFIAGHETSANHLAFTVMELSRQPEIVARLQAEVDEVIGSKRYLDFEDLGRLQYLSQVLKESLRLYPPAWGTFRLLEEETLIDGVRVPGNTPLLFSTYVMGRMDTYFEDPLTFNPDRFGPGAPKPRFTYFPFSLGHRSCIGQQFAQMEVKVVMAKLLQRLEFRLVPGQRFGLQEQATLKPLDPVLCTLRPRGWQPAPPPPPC
pKd: −log10 of the molar value.
QUANTITY: pKd

| COMPOUND | NUMERIC_VALUE |
| --- | --- |
| C[C@@H](c1ncncc1F)[C@](O)(Cn1cncn1)c1ccc(F)cc1F [voriconazole] | 7.30 |

----------
target: full-length CYP46A1 (Homo sapiens); experiment: Inhibition/stimulation of cholesterol hydroxylase activity at fixed 43 μM test compound; type: biochemical; conditions: 2.7 μM cholesterol, 43 μM compound; FIG. 4A-4C
Sequence (Q9Y6A2 whole entry): as above
QUANTITY: inhibition of cholesterol hydroxylation (in words)

| COMPOUND | RESULT |
| --- | --- |
| Clc1ccccc1C(c1ccccc1)(c1ccccc1)n1ccnc1 [clotrimazole] | significant inhibition |
| C[C@@H](c1ncncc1F)[C@](O)(Cn1cncn1)c1ccc(F)cc1F [voriconazole] | significant inhibition |
| Clc1ccc(-c2c[nH]cn2)cc1 [4-CPi, 4-(4-chlorophenyl)imidazole] | significant inhibition |

Each recorded value in this set is attributed to patent US20170182047A9.
